Attribution: ChEMBL document CHEMBL3779788

# PROTOCOL_TEXT: Cytotoxicity against human MCF7 cells at 10 ug/mL by MTT assay
# Type: cell-based
# CONDITION_SUMMARY: read-out: INH
# label = bin(measured cytotoxicity at 10 ug/mL), where bins are range 1: < 10%; range 2: ≥ 10% and < 20%; range 3: ≥ 20%

Example cases with answers are listed next.
O=C1CSC(c2ccc(Br)cc2)N1c1ccccc1 (centres undefined) : range 3
Cc1ccc(C2SCC(=O)N2c2ccc(C)cc2)cc1 (centres undefined) : range 2
O=C1CSC(c2ccc(F)cc2)N1c1ccccc1 (centres undefined) : range 2
O=C1CSC(c2ccc(O)cc2)N1c1ccc(Cl)cc1 (centres undefined) : range 3
O=C1CSC(c2ccc(Cl)cc2)N1c1ccccc1 (centres undefined) : range 3

QUERY: Tag the class for O=C1CSC(c2ccccc2)N1c1ccc(Br)cc1 (centres undefined)
RESULT: range 1

QUERY: Tag the class for O=C1CSC(c2ccccc2)N1c1ccccc1 (centres undefined)
RESULT: range 1

QUERY: Tag the class for Cc1ccc(N2C(=O)CSC2c2ccc(Cl)cc2)cc1 (centres undefined)
RESULT: range 1

QUERY: Tag the class for Cc1ccc(C2SCC(=O)N2c2ccc(F)cc2)cc1 (centres undefined)
RESULT: range 3

* * *

Exercise: state measured IC50 for each of the compounds provided.
# Test system: Pseudomonas
# PROTOCOL_TEXT: Antibacterial activity against Pseudomonas after 18 hrs by broth dilution method
# Format: functional, organism-based

Solved cases (3 shown):
O=C1CSC(c2ccc(Br)cc2)N1c1ccccc1 (stereo unspecified) : > 30 µg/mL
CC1(C)S[C@@H]2[C@H](NC(=O)[C@H](N)c3ccccc3)C(=O)N2[C@H]1C(=O)O [AMPICILLIN] : 4.36 µg/mL
O=C1CSC(c2ccc(Cl)cc2)N1c1ccccc1 (stereo unspecified) : > 30 µg/mL

I would be grateful if you could provide IC50 for each of the following entries.
1. COc1ccc(N2C(=O)CSC2c2ccccc2)cc1 (stereo unspecified)
2. COc1ccc(C2SCC(=O)N2c2ccccc2)cc1 (stereo unspecified)
3. O=C1CSC(c2ccc(F)cc2)N1c1ccccc1 (stereo unspecified)
4. Cc1ccc(C2SCC(=O)N2c2ccc(F)cc2)cc1 (stereo unspecified)
5. O=C1CSC(c2ccccc2)N1c1ccc(Cl)cc1 (stereo unspecified)
6. NC[C@H]1O[C@H](O[C@H]2[C@H](O)[C@@H](O[C@H]3O[C@H](CO)[C@@H](O)[C@H](N)[C@H]3O)[C@H](N)C[C@@H]2N)[C@H](O)[C@@H](O)[C@@H]1O [KANAMYCIN]

RESULT:
1. > 30 µg/mL
2. > 30 µg/mL
3. > 30 µg/mL
4. > 30 µg/mL
5. > 30 µg/mL
6. 0.49 µg/mL

I would be grateful if you could provide IC50 for each of the following entries.
1. O=C1CSC(c2ccccc2)N1c1ccccc1 (stereo unspecified)
2. O=C1CSC(c2ccccc2)N1c1ccc(F)cc1 (stereo unspecified)

RESULT:
["> 30 µg/mL", "> 30 µg/mL"]

* * *

# PROTOCOL_TEXT: Cytotoxicity against human HCT116 cells at 3 ug/mL by MTT assay
# Format: cell-based, HCT-116
# CONDITION_SUMMARY: read-out: INH
Exercise: state measured cytotoxicity at 3 ug/mL for each of the molecules provided.
Give bare numbers, in %.

Cc1ccc(C2SCC(=O)N2c2ccccc2)cc1 (stereo not drawn) : -25.8
COc1ccc(N2C(=O)CSC2c2ccccc2)cc1 (stereo not drawn) : -6.1
O=C1CSC(c2ccc(Cl)cc2)N1c1ccc(F)cc1 (stereo not drawn) : -6.2
O=C1CSC(c2ccccc2)N1c1ccc(Br)cc1 (stereo not drawn) : -7.3
COc1ccc(C2SCC(=O)N2c2ccccc2)cc1 (stereo not drawn) : -5.4
O=C1CSC(c2ccc(F)cc2)N1c1ccccc1 (stereo not drawn) : -0.5
O=C1CSC(c2ccc(Cl)cc2)N1c1ccccc1 (stereo not drawn) : -7.5
O=C1CSC(c2ccc([N+](=O)[O-])cc2)N1c1ccccc1 (stereo not drawn) : -11.5
O=C1CSC(c2ccccc2)N1c1ccccc1 (stereo not drawn) : 3.3
Cc1ccc(N2C(=O)CSC2c2ccc([N+](=O)[O-])cc2)cc1 (stereo not drawn) : -16.1

I would be grateful if you could provide cytotoxicity at 3 ug/mL for each of the following entries.
1. O=C1CSC(c2ccccc2)N1c1ccc(F)cc1 (stereo not drawn)
2. O=C1CSC(c2ccc(Br)cc2)N1c1ccccc1 (stereo not drawn)
3. O=C1CSC(c2ccc(Cl)cc2)N1c1ccc(Cl)cc1 (stereo not drawn)

RESULT:
-5.4
2.4
-8.1
